test: clinical; assay type: in vivo, human; details: human, in vivo, po, spot urine, second of the two days after admission; read-out: apparent digitoxin concentration in urine
MEASURED ENDPOINT: concentration at 48 h (ng/mL)
// units = ng/mL; emit number, no label

QUERY: concentration at 48 h lookup needed for C[C@H]1O[C@@H](O[C@H]2[C@@H](O)C[C@H](O[C@H]3[C@@H](O)C[C@H](O[C@H]4CC[C@@]5(C)[C@H](CC[C@@H]6[C@@H]5CC[C@]5(C)[C@@H](C7=CC(=O)OC7)CC[C@]65O)C4)O[C@@H]3C)O[C@@H]2C)C[C@H](O)[C@@H]1O [digitoxin] , thanks.
RESULT: 512
